- assayed-target: TSPO (Rattus norvegicus)
- settings: read-out: TSPO binding affinity (IC50); competition with [^3H]PK 11195 (0.6 nM), C6 glioma cell lysate, 2 h at 25 °C
quantity-name: IC50 (nM)

P: CCCCc1cc(C)n2nc(-c3ccc(OCCF)cc3)c(CC(=O)N(CC)CC)c2n1 [VUIIS1018B]
Q: CCCCc1cc(C)nc2c(CC(=O)N(CC)CC)c(-c3ccc(OCCF)cc3)nn12 [VUIIS1018A]
Name the one with the greater IC50 value, either P or Q as given. API: response body contains the label of the selected item.
P
(P: 100 nM, Q: 0.0162 nM)
